- Tested on: CT26
- experimentSummary: CellTiter-Glo cell proliferation inhibition, CT26
- Format: cell-based
- experimentalConditions: CT26 (mouse colon cancer cell line), 72 hours; read-out: Example IC50 (µM) CT26
Answer each item with its documented IC50.
Answers are plain numbers, in µM.

INSERT INTO measurements (compound, numericreadout) VALUES
  ('O=C(Nc1ccc(-c2csc(CO)c2)cc1)C(=O)Nc1ccc(-c2cc3cc(F)c(-c4nnn[nH]4)cc3n2C2CCC2)cc1', 0.123);

Proceed to the following item.
Tell me the measured IC50 of O=C(Nc1ccc(-c2cc3cc(F)c(-c4nnn[nH]4)cc3n2C2CCC2)cc1)C(=O)Nc1ccc(N2CCC3(CCC(O)C3)CC2)cc1 (centres unmarked) , please.
0.134

* * *

- systemUnderTest: HePTP (Homo sapiens, UniProt P35236)
- Construct: made in house; host or cells: E. coli
- Sequence (P35236 whole entry, species assumed): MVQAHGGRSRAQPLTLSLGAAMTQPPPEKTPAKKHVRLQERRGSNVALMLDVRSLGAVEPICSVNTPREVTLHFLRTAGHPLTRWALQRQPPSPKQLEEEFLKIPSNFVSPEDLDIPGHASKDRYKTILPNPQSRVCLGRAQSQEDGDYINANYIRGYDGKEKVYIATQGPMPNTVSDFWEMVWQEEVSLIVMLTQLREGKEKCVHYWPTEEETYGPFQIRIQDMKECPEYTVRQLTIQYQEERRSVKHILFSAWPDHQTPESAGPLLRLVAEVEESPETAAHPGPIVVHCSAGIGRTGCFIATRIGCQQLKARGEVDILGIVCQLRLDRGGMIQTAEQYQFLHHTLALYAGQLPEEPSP
- experimentSummary: Tyrosine phosphatase selectivity (pNPP substrate), HePTP
- Format: biochemical
- experimentalConditions: selectivity ratio HePTP over SHP2
property: IC50PTP/IC50SHP2 HePTP
Give bare numbers.

INSERT INTO results (compound, numericreadout) VALUES
  ('O=C(Nc1ccc(-c2cc3cc(F)c(-c4nnn[nH]4)cc3n2C2CCC2)cc1)C(=O)Nc1ccc(N2CCC3(CCOC3)CC2)cc1', 27.9),
  ('Cn1c(-c2cccc(NC(=O)C(=O)Nc3ccc(-c4ccsc4)cc3)c2)c(I)c2cc(C(=O)O)c(O)cc21 [Example 11a-1, reference compound]', 9.5),
  ('O=C(Nc1ccc(-c2ccsc2)cc1)C(=O)Nc1ccc(-c2cc3ccc(-c4nnn[nH]4)nc3n2C2CCC2)cc1', 339.0),
  ('O=C(Nc1ccc(-c2ccsc2)cc1)C(=O)Nc1ccc(-c2cc3cc(F)c(-c4nnn[nH]4)cc3n2C2CCC2)cc1', 155.2);

Batch of 5 compounds: report IC50PTP/IC50SHP2 HePTP for each.
1. O=C(Nc1ccc(-c2ccsc2)cc1)C(=O)Nc1ccc(-c2cc3cc(F)c(-c4nnn[nH]4)nc3n2C2CCC2)cc1
2. O=C(Nc1ccc(-c2ccsc2)cc1)C(=O)Nc1ccc(-c2cc3cnc(-c4nnn[nH]4)nc3n2C2CCC2)cc1
3. O=C(Nc1ccc(-c2ccsc2)cc1)C(=O)Nc1ccc(-c2oc3cc(F)c(-c4nnn[nH]4)cc3c2C2CCC2)cc1
4. CC1(n2c(-c3ccc(NC(=O)C(=O)Nc4ccc(N5CCC6(CCOC6)CC5)cc4)cc3)cc3cc(F)c(-c4nnn[nH]4)cc32)CCC1
5. Cn1cc(-c2ccc(NC(=O)C(=O)Nc3ccc(-c4cc5cc(F)c(-c6nnc(C(F)(F)F)[nH]6)cc5n4C4CCC4)cc3)cc2)cn1

[211.1, 234.6, 800, 29.3, 139.7]

* * *

- systemUnderTest: CYP2B6 (Homo sapiens, UniProt P20813)
- Construct: tissue Corning or Xenotech; host or cells: human liver microsomes
- Sequence (P20813 whole entry): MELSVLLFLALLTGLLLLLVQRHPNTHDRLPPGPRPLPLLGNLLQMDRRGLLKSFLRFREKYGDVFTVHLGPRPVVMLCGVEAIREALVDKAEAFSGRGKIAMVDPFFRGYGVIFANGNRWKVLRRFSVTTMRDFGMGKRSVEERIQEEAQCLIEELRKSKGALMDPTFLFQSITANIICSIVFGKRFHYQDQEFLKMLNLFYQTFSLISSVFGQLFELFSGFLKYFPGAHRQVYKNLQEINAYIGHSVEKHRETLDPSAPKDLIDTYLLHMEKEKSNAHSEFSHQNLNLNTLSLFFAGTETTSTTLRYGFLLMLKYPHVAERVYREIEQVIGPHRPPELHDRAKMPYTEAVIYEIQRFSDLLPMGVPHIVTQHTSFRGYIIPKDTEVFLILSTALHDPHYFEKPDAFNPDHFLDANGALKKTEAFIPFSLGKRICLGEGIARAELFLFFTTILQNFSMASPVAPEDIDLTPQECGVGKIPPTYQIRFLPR
- experimentSummary: CYP450 inhibition in human liver microsomes, CYP2B6
- Assay type: in vitro ADME
- experimentalConditions: pH 7.4, read-out: % CYP inhibition @ 10 µM 2B6
property: inhibition at 10 min, 10 µM (%)
Answers are plain numbers, in %.

Please review the entries below; each comes with its answer.
INSERT INTO measurements (molecule, resultunit, numericreadout) VALUES
  ('CC1(n2c(-c3ccc(NC(=O)C(=O)Nc4ccc(N5CCC6(CCOC6)CC5)cc4)cc3)cc3cc(F)c(-c4nnn[nH]4)cc32)CCC1 [Example 68]', '%', 7.06),
  ('O=C(Nc1ccc(-c2cc3cc(F)c(-c4nnn[nH]4)cc3n2C2CCC2)cc1)C(=O)Nc1ccc(N2CCC(CO)CC2)cc1 [Example 23]', '%', 1.32);

Proceed to the following item.
Tell me the measured inhibition at 10 min, 10 µM of O=C(Nc1ccc(-c2cc3cc(F)c(-c4nnn[nH]4)cc3n2C2CCC2)cc1)C(=O)Nc1ccc(N2CCC3(CCOC3)CC2)cc1 [Example 67] , please.
15.3
